target: T1, purified recombinant human VEGF165 (human, UniProt P15692 27-191, glycosylated); assay: SPR (BIAcore), purified scFv over VEGF immobilized on CM5 chip, 25 C
T1 construct: mature; Bought from Calbiochem; also called VEGF protein (Calbiochem); homodimeric VEGF protein
T1 sequence (P15692 other isoform, or with tags, fused parts or gaps limits assumed): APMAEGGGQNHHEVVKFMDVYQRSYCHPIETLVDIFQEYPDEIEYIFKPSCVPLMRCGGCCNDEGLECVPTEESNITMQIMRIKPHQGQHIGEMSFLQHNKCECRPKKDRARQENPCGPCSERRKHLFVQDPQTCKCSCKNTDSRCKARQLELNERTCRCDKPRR
parameterMeasured: koff (s⁻¹)
# unit: s⁻¹ | format: bare number

IN: For hAB4 (scFv, Single chain format; not shown: HA-His6 tag at C-terminus) scFv: QVQLVQSGGGVVQPGGSLRLTCAASGYTFTNYGMNWVRQAPGKGLEWVGWINTYTGEPTYAADFKRRFTISLDTSKSQAYLQMNSLRAEDTAVYYCAKYPHYYGSSHWYFDVWGQGTLVTVSSGGGGSGGGGSGGGGSDIQMTQSPSSLSASVGDRVTITCSASQDISNYLNWYQQKPGKAPKVLIYFTSSLHSGVPSRFSGSGSGTDFTLTISSLQPEDFATYYCQQYSTVPWTFGQGTKVEIK , what is its reported koff?
OUT: 0.000104

IN: Now this one: hAB10 (scFv, Single chain format; not shown: HA-His6 tag at C-terminus) scFv: EVQLVESGGGLVQPGGSLRLSCAASGYTFTNYGMNWVRQAPGKGLEWVGWINTYTGEPTYAADFKRRFTFSLDTSKSTAYLQMNSLRAEDTAVYYCAKYPYYYGTSHWYFDVWGQGTLVTVSSGGGGSGGGGSGGGGSDIQMTQSPSSLSASVGDRVTITCSASQDISNYLNWYQQKPGKAPKVLIYFTSSLHSGVPSRFSGSGSGTDFTLTISSLQPEDFATYYCQQYSTVPWTFGQGTKVEIK
OUT: 3e-06

IN: Now this one: hAB11 (scFv, Single chain format; not shown: HA-His6 tag at C-terminus) scFv: EVQLVESGGGLVQPGGSLRLSCAASGYTFTNYGMNWVRQAPGKGLEWVGWINTYTGEPTYAADFKRRFTFSLDTSKSTAYLQMNSLRAEDTAVYYCAKYPHYYGRSHWYFDVWGQGTLVTVSSGGGGSGGGGSGGGGSDIQMTQSPSSLSASVGDRVTITCSASQDISNYLNWYQQKPGKAPKVLIYFTSSLHSGVPSRFSGSGSGTDFTLTISSLQPEDFATYYCQQYSTVPWTFGQGTKVEIK
OUT: 8.7e-05
